Test system: Streptococcus pneumoniae
Experiment: Minimal inhibitory concentration against Streptococcus pneumoniae ATCC 49619 (PSSP); susceptible strain
Type: functional
Kindly state MIC for each of the entries shown.
The reply should read as a number followed by its unit.

Completed entries (count: 2):
Clc1cccc(-n2nc(C3CCNCC3)cc2CCc2c[nH]c3ccc(Cl)cc23)c1 16 µg/mL
Clc1cccc(-n2nc(C3CCNCC3)cc2/C=C/c2c(Cl)cccc2Cl)c1 4 µg/mL

Look up MIC for the entries below, preserving their order.
1. Clc1cccc(-n2nc(C3CCNCC3)cc2/C=C/c2c[nH]c3ccc(Cl)cc23)c1
2. Clc1ccc(COc2ccc(/C=C/c3cc(C4CCNCC4)[nH]n3)cc2)cc1Cl
3. Cn1cc(/C=C/c2cc(C3CCNCC3)nn2-c2cccc(Cl)c2)c2cc(Cl)ccc21

1. 2 µg/mL
2. 2 µg/mL
3. 1 µg/mL

---

Please respond with reported MIC for every item in the list.
Tested on: Enterococcus faecium
Test: Minimal inhibitory concentration against Enterococcus faecium ATCC 19434 (VSE); susceptible strain
Format: functional
Give bare numbers, in µg/mL.

Here's what some known entries look like.
Clc1cccc(-n2nc(C3CCNCC3)cc2/C=C/c2c(Cl)cccc2Cl)c1 8
Clc1cccc(-n2nc(C3CCNCC3)cc2/C=C/c2c[nH]c3ccc(Cl)cc23)c1 2
Cn1cc(/C=C/c2cc(C3CCNCC3)nn2-c2cccc(Cl)c2)c2cc(Cl)ccc21 2
Clc1ccc(COc2ccc(/C=C/c3cc(C4CCNCC4)[nH]n3)cc2)cc1Cl 2

MIC lookup needed for Clc1cccc(-n2nc(C3CCNCC3)cc2CCc2c[nH]c3ccc(Cl)cc23)c1 , thanks.
16

---

Test system: Escherichia coli
Assay: Minimal inhibitory concentration against Escherichia coli W3110 delta acrA; A multidrug efflux pump mutant
Type: functional
Can you tell me MIC for the items I'm about to list?
Answers are plain numbers, in µg/mL.

Recorded results for 10 compounds are shown here.
Clc1cccc(-n2nc(C3CCNCC3)cc2CCc2c(Cl)cccc2Cl)c1 16
Clc1cccc(-n2nc(C3CCNCC3)cc2CCc2c[nH]c3ccc(Cl)cc23)c1 16
Clc1ccc(/C=C/c2cc(C3CCNCC3)[nH]n2)cc1Cl 4
Clc1ccc(COc2ccc(/C=C/c3cc(C4CCNCC4)[nH]n3)cc2)cc1Cl 2
Clc1cccc(-n2nc(C3CCNCC3)cc2/C=C/c2c[nH]c3ccc(Cl)cc23)c1 4
Clc1cccc(-n2nc(C3CCNCC3)cc2/C=C/c2ccc(OCc3ccc(Cl)c(Cl)c3)cc2)c1 4
Cn1cc(/C=C/c2cc(C3CCNCC3)nn2-c2cccc(Cl)c2)c2cc(Cl)ccc21 4
Clc1cccc(-n2nc(C3CCNCC3)cc2/C=C/c2cc3cc(Cl)ccc3[nH]2)c1 4
Clc1cccc(-n2nc(C3CCNCC3)cc2/C=C/c2ccc(Cl)c(Cl)c2)c1 4
Clc1cccc(-n2nc(C3CCNCC3)cc2/C=C/c2c(Cl)cccc2Cl)c1 4

Consider the compound shown here: Clc1cccc(Cl)c1CCc1cc(C2CCNCC2)[nH]n1 What is its recorded MIC?
64

---

Molecular target: DNA gyrase (Escherichia coli, UniProt P0AES4+P0AES6)
Test: Inhibitory activity against supercoiling activity of DNA gyrase isolated from Escherichia coli
Would you kindly list pIC50 for each of these compounds?
One number for each entry, as −log10 of the molar value.

Clc1cccc(-n2nc(C3CCNCC3)cc2/C=C/c2c[nH]c3ccc(Cl)cc23)c1 4.74

Consider the additional compound presented here.
Could you tell me which pIC50 is on file for Clc1ccc(COc2ccc(/C=C/c3cc(C4CCNCC4)[nH]n3)cc2)cc1Cl ?
4.49
